Tested on: HSV-2
Assay: microbe, parasite or virus in culture
Format: cell-based, HSV-2 (strain HG-52)
Conditions: Human alphaherpesvirus 2, BHK21 (C13), +20 μM of peptide; HSV-2 in BHK-21/C13 cells; read-out: IC50 of acyclovir
Property Label: IC50 (nM)
Could you give me the number in nM? Just the number is fine.

Req: For the compound shown here, Nc1nc2c(ncn2COCCO)c(=O)[nH]1 [acyclovir, 9-[(2-hydroxyethoxy)methyl]guanine] , give the reported IC50.
Resp: 700

---

Tested on: HSV-2
Assay: microbe, parasite or virus in culture
Type: cell-based, HSV-2 (strain HG-52)
Details: Human alphaherpesvirus 2, BHK21 (C13), +30 μM of peptide; HSV-2 in BHK-21/C13 cells; read-out: IC50 of acyclovir
Property Label: pIC50
The value called pIC50 is obtained by taking minus log10 of the concentration in mol/L.

Req: For the molecule shown here, Nc1nc2c(ncn2COCCO)c(=O)[nH]1 [acyclovir, 9-[(2-hydroxyethoxy)methyl]guanine] , give the reported pIC50.
Resp: 6.30

Origin of values: patent US5552384A
